Where do these numbers come from? They come from PubChem BioAssay (NCATS).

assay.notes: Quantitative High-Throughput drug screen in 47 multiple myeloma cell lines against the NCATS MIPE library collection: MOLP8_DSMZ cell viability assay (AID 1918977); also: nearly all actives have a fitted effect of over 45% in size
run.conditions: MOLP8 myeloma viability, CellTiter-Glo ATP luminescence, 48 h; series mostly up to 45.8 µM
Inconclusive results are not listed. Activity calls are given as the source filed them. Calls follow the shape of the dose curve; as a rule, active = well fitted cell-killing curve with a large enough effect; inconclusive = small, poorly fitted or top-dose-only effect, or effect the other way; inactive = no such curve, though single readings can be large or run the other way.
The reply should be one of these categories: active, inactive

{"compound": "O=C1NC(=O)C(=Cc2ccc3nccc(-c4ccncc4)c3c2)S1", "answer.label": "active"}
{"compound": "CCNC(=O)Nc1ccc(-c2nc3c(c(N4CCOC[C@H]4C)n2)CCN(C2COC2)C3)cc1", "answer.label": "active"}
{"compound": "CCc1cc(C(C)=NOCc2ccc(C3CCCCC3)c(C(F)(F)F)c2)ccc1CN1CC(C(=O)O)C1", "answer.label": "inactive"}
{"compound": "Oc1cc(-c2nc(-c3ccccc3)[nH]c2-c2ccncc2)ccc1Cl", "answer.label": "active"}

Hello, I am checking results. What call was entered for N#CC(=C(O)c1ccc(Cl)cc1Cl)c1nc2cc(Cl)ccc2c(=O)[nH]1 ?
inactive

Which outcome was entered for the compound CC(=O)O[C@@]12CO[C@H]1C[C@H](O)[C@@]1(C)C(=O)[C@H](O)C3=C(C)[C@@H](OC(=O)C(O)[C@@H](NC(=O)OC(C)(C)C)c4ccccc4)C[C@@](O)([C@@H](OC(=O)c4ccccc4)[C@@H]21)C3(C)C (some centres undefined) in this test?
inactive

----------
assay.notes: qHTS of pediatric cancer cell lines to identify multiple opportunities for drug repurposing: Primary screen for OHS-50 cells (AID 1347103); also: nearly all actives have a fitted effect of over 40% in size; also: potency is read from the fitted curve at half-maximal effect
run.conditions: OHS-50 osteosarcoma viability, CellTiter-Glo luminescence, 48 h; series mostly up to 57.3 µM
Records with an inconclusive call do not appear. The source made the active and inactive calls. Calls follow the shape of the dose curve; as a rule, active = well fitted cell-killing curve with a large enough effect; inconclusive = small, poorly fitted or top-dose-only effect; inactive = no such curve, though single readings can be large or run the other way.
observed.property: Potency

Answered cases to consult:
{"compound": "CC(C)C[C@H](NC(=O)[C@@H](NC(=O)c1cccc(-c2ccccc2)n1)[C@@H](C)O)B(O)O", "observed.property": "Potency", "measured.value": "432 nM (active)"}
{"compound": "Cn1cc(-c2ccc3ncc(Cc4ccc5ncccc5c4)n3n2)cn1", "observed.property": "Potency", "measured.value": "inactive"}
{"compound": "CC(C)(O)[C@H]1CC[C@@](C)([C@H]2[C@@H](O)C[C@@]3(C)[C@@H]4C[C@H](O[C@@H]5O[C@H](CO)[C@@H](O)[C@H](O)[C@@H]5O)[C@H]5C(C)(C)[C@@H](O[C@@H]6OC[C@@H](O)[C@H](O)[C@@H]6O)CC[C@@]56C[C@@]46CC[C@]23C)O1", "observed.property": "Potency", "measured.value": "inactive"}
{"compound": "COc1cc(OC)c(C=CS(=O)(=O)Cc2ccc(OC)c(NCC(=O)O)c2)c(OC)c1", "observed.property": "Potency", "measured.value": "172 nM (active)"}
{"compound": "C#CCC(Cc1cnc2nc(N)nc(N)c2n1)c1ccc(C(=O)N[C@@H](CCC(=O)O)C(=O)O)cc1 (stereo partly drawn)", "observed.property": "Potency", "measured.value": "109 nM (active)"}

Requested read-out: Potency. Entry: N#Cc1ccc(COC[C@H]2O[C@@H](n3c(NCc4ccc(Cl)c(Cl)c4)nc4c(N)ncnc43)[C@@H](O)[C@@H]2O)cc1
6850 nM (active)

May I ask what Potency has been recorded for CC(=O)SCC(Cc1ccccc1)C(=O)NCC(=O)OCc1ccccc1 (stereo not drawn) ?
19300 nM (active)

Using the record for CS(=O)(=O)N1CCc2c(-c3cnc(N)nc3)nc(N3CCOCC3)nc21 , report its Potency.
54.4 nM (active)
